# System: Helix pomatia
# Assay Explanation: Inhibition of snail beta-mannosidase using p-nitrophenyl glycoside as substrate assessed as release of p-nitrophenol at 1000 uM measured by spectrometric assay relative to control
Readout: inhibition (%)
Please give a number only; it is taken to be in %.

structure_string=CCCCCCCCCCCC[C@]1(CO)NC[C@H](O)[C@@H](O)[C@@H]1O.Cl readout_unit=% observed_result=1.5
structure_string=CCC[C@@]1(CO)NC[C@H](O)[C@@H](O)[C@@H]1O.Cl readout_unit=% observed_result=4.9

Inquiry: Value wanted: inhibition (Helix pomatia) of entry `CCCCCC[C@]1(CO)NC[C@H](O)[C@@H](O)[C@@H]1O.Cl`
Reply text: 0

====

# System Name: Alpha-galactosidase (Coffea arabica) (UniProt Q42656)
# Sequence (Q42656 16-378 limits assumed): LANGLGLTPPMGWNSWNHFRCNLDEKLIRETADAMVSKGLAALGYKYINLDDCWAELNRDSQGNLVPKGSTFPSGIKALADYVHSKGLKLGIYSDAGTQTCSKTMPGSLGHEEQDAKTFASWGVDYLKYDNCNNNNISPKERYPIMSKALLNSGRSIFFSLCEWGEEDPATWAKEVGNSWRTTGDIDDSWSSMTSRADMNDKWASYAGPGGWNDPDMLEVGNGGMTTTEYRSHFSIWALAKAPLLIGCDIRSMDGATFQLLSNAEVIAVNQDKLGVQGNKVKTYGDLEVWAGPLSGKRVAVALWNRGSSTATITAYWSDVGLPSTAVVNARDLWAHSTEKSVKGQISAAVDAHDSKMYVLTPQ
# Assay Explanation: Inhibition of coffee beans alpha-galactosidase using p-nitrophenyl glycoside as substrate assessed as release of p-nitrophenol at 1000 uM measured by spectrometric assay relative to control
Readout: inhibition (%)
The response must be a number in % with no trailing unit.

Some entries whose results are on file:
structure_string=CC[C@]1(CO)NC[C@H](O)[C@@H](O)[C@@H]1O.Cl readout_unit=% observed_result=30.1
structure_string=CCCCCCCCCCC[C@@]1(CO)NC[C@H](O)[C@@H](O)[C@@H]1O.Cl readout_unit=% observed_result=1.6
structure_string=C[C@@]1(CO)NC[C@H](O)[C@@H](O)[C@@H]1O.Cl readout_unit=% observed_result=9.3
structure_string=CCCCCCCC[C@@]1(CO)NC[C@H](O)[C@@H](O)[C@@H]1O.Cl readout_unit=% observed_result=3.3
structure_string=CCCCCC[C@@]1(CO)NC[C@H](O)[C@@H](O)[C@@H]1O.Cl readout_unit=% observed_result=8
structure_string=CCCCCCCCC[C@@]1(CO)NC[C@H](O)[C@@H](O)[C@@H]1O.Cl readout_unit=% observed_result=15.3

Inquiry: What does the record list as inhibition for `CC[C@@]1(CO)NC[C@H](O)[C@@H](O)[C@@H]1O.Cl` ?
Reply text: 3.5

Inquiry: What do you have for `CCCCC[C@@]1(CO)NC[C@H](O)[C@@H](O)[C@@H]1O.Cl` ?
Reply text: 1.7

====

inhibition overview
# Tested on: Aspergillus niger
# Assay Explanation: Inhibition of Aspergillus niger amyloglucosidase using p-nitrophenyl glycoside as substrate assessed as release of p-nitrophenol at 1000 uM measured by spectrometric assay relative to control
Express your answer in %, writing the number without its unit.

structure_string=CCCCC[C@@]1(CO)NC[C@H](O)[C@@H](O)[C@@H]1O.Cl observed_result=0
structure_string=CC[C@]1(CO)NC[C@H](O)[C@@H](O)[C@@H]1O.Cl observed_result=0
structure_string=CCCCC[C@]1(CO)NC[C@H](O)[C@@H](O)[C@@H]1O.Cl observed_result=0.83
structure_string=CCCCCCCCCC[C@]1(CO)NC[C@H](O)[C@@H](O)[C@@H]1O.Cl observed_result=9.2
structure_string=CCCC[C@]1(CO)NC[C@H](O)[C@@H](O)[C@@H]1O.Cl observed_result=17.1

Inquiry: So what's the measured inhibition for this one? `CCCCCCCCCCC[C@]1(CO)NC[C@H](O)[C@@H](O)[C@@H]1O.Cl`
Reply text: 0

Inquiry: Follow-up item: `CCCCCCCCCCCC[C@]1(CO)NC[C@H](O)[C@@H](O)[C@@H]1O.Cl`
Reply text: 10.7

====

# Assay Explanation: Inhibition of Aspergillus niger amyloglucosidase using p-nitrophenyl glycoside as substrate assessed as release of p-nitrophenol measured by spectrometric assay
# Test Settings: read-out: IC50
Readout: IC50 (µM)
Write down the numeric answer in µM and omit the unit.

Inquiry: Given the entry OC[C@H]1NC[C@H](O)[C@@H](O)[C@@H]1O [DUVOGLUSTAT] , report its measured IC50.
Reply text: 763

====

# Organism: Sus scrofa
# Assay Explanation: Inhibition of porcine kidney alpha-trehalase using p-nitrophenyl glycoside as substrate assessed as release of p-nitrophenol at 1000 uM measured by spectrometric assay relative to control
# inhibition per record follows
Please state the value followed by its unit.

Inquiry: Given `CCCCCCCCCC[C@]1(CO)NC[C@H](O)[C@@H](O)[C@@H]1O.Cl` , state its recorded inhibition.
Reply text: 5.7%

Inquiry: Another compound: `CC[C@@]1(CO)NC[C@H](O)[C@@H](O)[C@@H]1O.Cl`
Reply text: 1.5%

Inquiry: Again, but for `CCCC[C@]1(CO)NC[C@H](O)[C@@H](O)[C@@H]1O.Cl`
Reply text: 33.5%

Inquiry: Query `CCCCCCCCCCCC[C@]1(CO)NC[C@H](O)[C@@H](O)[C@@H]1O.Cl` next
Reply text: 4.8%

Inquiry: Entry to check: `C[C@@]1(CO)NC[C@H](O)[C@@H](O)[C@@H]1O.Cl`
Reply text: 7.5%

====

# System Name: Beta-glucuronidase (Escherichia coli (strain K12))
# Assay Explanation: Inhibition of Escherichia coli beta-glucuronidase using p-nitrophenyl glycoside as substrate assessed as release of p-nitrophenol at 1000 uM measured by spectrometric assay relative to control
Listed molecules paired with reported inhibition
Write the answer as a number in %, unit excluded.

# count of solved cases: 3
structure_string=CCCCCCCCCCCC[C@@]1(CO)NC[C@H](O)[C@@H](O)[C@@H]1O.Cl system_name="Beta-glucuronidase (Escherichia coli (strain K12))" readout_unit=% observed_result=13.9
structure_string=CCC[C@@]1(CO)NC[C@H](O)[C@@H](O)[C@@H]1O.Cl system_name="Beta-glucuronidase (Escherichia coli (strain K12))" readout_unit=% observed_result=42.1
structure_string=CCC[C@]1(CO)NC[C@H](O)[C@@H](O)[C@@H]1O.Cl system_name="Beta-glucuronidase (Escherichia coli (strain K12))" readout_unit=% observed_result=8.6

Inquiry: For the molecule `CCCCCC[C@@]1(CO)NC[C@H](O)[C@@H](O)[C@@H]1O.Cl` , what inhibition is on record?
Reply text: 17.2

Inquiry: What about `CCCCCCCC[C@]1(CO)NC[C@H](O)[C@@H](O)[C@@H]1O.Cl` ?
Reply text: 12

Inquiry: Please give the result for `CCCCCCCCCCCC[C@]1(CO)NC[C@H](O)[C@@H](O)[C@@H]1O.Cl` too.
Reply text: 16.5

====

# System Name: Sucrase-isomaltase, intestinal (Rattus norvegicus)
# Sequence (P23739 1-1013 limits assumed): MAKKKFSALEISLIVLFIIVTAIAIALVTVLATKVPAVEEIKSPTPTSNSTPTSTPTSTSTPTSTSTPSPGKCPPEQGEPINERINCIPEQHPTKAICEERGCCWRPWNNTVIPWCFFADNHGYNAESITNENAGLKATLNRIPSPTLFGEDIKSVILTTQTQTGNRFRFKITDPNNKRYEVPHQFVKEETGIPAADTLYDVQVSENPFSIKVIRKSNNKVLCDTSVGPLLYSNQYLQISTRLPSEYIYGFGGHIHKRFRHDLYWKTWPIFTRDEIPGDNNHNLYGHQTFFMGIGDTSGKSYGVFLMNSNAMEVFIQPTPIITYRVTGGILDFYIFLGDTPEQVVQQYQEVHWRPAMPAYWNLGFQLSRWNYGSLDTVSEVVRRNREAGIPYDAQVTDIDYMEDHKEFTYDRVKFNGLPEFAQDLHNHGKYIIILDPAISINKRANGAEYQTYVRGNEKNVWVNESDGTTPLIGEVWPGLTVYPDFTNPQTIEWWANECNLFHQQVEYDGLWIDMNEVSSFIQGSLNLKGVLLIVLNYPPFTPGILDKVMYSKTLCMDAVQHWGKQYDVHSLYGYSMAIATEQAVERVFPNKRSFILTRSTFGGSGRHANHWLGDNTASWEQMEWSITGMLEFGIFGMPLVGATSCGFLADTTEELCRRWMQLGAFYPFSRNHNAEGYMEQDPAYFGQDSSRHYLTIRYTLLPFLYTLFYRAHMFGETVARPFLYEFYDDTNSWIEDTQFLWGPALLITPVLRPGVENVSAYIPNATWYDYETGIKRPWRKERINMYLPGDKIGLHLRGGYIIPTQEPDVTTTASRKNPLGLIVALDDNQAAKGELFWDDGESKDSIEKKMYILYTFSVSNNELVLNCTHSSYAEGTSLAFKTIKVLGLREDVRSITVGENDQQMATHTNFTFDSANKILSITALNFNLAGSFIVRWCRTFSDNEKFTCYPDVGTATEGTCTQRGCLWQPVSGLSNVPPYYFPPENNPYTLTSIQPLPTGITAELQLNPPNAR
# Sequence (P23739 1014-1841 limits assumed): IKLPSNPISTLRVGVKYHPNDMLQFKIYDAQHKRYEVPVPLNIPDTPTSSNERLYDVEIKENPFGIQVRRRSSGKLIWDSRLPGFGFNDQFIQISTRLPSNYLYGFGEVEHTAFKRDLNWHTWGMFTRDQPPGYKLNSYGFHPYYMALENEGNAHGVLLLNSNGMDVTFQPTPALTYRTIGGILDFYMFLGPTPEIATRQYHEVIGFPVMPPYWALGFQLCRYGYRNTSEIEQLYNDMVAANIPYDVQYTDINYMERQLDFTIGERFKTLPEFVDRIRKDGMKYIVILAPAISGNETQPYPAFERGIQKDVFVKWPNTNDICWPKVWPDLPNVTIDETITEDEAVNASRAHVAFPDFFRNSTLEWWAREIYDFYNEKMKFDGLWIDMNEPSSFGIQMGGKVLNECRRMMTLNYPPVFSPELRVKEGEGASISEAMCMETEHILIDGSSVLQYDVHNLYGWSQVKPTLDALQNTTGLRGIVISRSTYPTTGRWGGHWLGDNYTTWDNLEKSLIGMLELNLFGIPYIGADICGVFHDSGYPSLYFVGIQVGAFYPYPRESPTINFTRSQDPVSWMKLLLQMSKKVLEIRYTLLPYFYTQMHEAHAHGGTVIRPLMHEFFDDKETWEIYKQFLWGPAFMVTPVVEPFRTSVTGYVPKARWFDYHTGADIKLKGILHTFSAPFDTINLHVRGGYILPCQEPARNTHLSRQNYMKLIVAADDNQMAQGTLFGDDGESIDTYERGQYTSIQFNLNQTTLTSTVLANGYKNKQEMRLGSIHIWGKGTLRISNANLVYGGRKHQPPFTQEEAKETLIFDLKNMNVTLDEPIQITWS
# Assay Explanation: Inhibition of rat intestinal isomaltase using p-nitrophenyl glycoside as substrate assessed as release of p-nitrophenol measured by spectrometric assay
# Test Settings: read-out: IC50
Readout: IC50 (µM)
# unit: µM | format: bare number

# example entries with known answers
structure_string=CCC[C@]1(CO)NC[C@H](O)[C@@H](O)[C@@H]1O.Cl observed_result=1.7
structure_string=CCCCCC[C@]1(CO)NC[C@H](O)[C@@H](O)[C@@H]1O.Cl observed_result=0.55
structure_string=CC[C@@]1(CO)NC[C@H](O)[C@@H](O)[C@@H]1O.Cl observed_result=50

Field: next compound
Inquiry: IC50 lookup needed for `CCCCCCCCCCCC[C@]1(CO)NC[C@H](O)[C@@H](O)[C@@H]1O.Cl` , thanks.
Reply text: 7.8

====

# Assay Explanation: Inhibition of rice alpha-glucosidase using p-nitrophenyl glycoside as substrate assessed as release of p-nitrophenol measured by spectrometric assay
# Design: species or system Oryza sativa
# Test Settings: read-out: IC50
Binary call on IC50 with cut-off 100 nM: strictly below means true (1), and equality or higher means false (0).

Worked set:
structure_string=CCCC[C@]1(CO)NC[C@H](O)[C@@H](O)[C@@H]1O.Cl qualitative_label="false (0)"
structure_string=CCCCCCCC[C@@]1(CO)NC[C@H](O)[C@@H](O)[C@@H]1O.Cl qualitative_label="false (0)"
structure_string=CCCCCCCCC[C@]1(CO)NC[C@H](O)[C@@H](O)[C@@H]1O.Cl qualitative_label="true (1)"

Inquiry: IC50 under 100 nM? Item: `CCCCCCC[C@]1(CO)NC[C@H](O)[C@@H](O)[C@@H]1O.Cl`
Reply text: true (1)

Inquiry: Moving on to `CCCCCCCCC[C@@]1(CO)NC[C@H](O)[C@@H](O)[C@@H]1O.Cl`
Reply text: false (0)

Inquiry: Try this compound next: `CCCCC[C@@]1(CO)NC[C@H](O)[C@@H](O)[C@@H]1O.Cl`
Reply text: false (0)

Inquiry: Would you mind doing `CCCCC[C@]1(CO)NC[C@H](O)[C@@H](O)[C@@H]1O.Cl` as well?
Reply text: true (1)

Inquiry: `C[C@]1(CO)NC[C@H](O)[C@@H](O)[C@@H]1O.Cl` ?
Reply text: true (1)

Inquiry: Next: `CCCCCCCCCCCC[C@]1(CO)NC[C@H](O)[C@@H](O)[C@@H]1O.Cl`
Reply text: true (1)

Inquiry: Same read-out for `CCCCCCC[C@@]1(CO)NC[C@H](O)[C@@H](O)[C@@H]1O.Cl` ?
Reply text: false (0)
